molecular target: T1, cynomolgus soluble urokinase plasminogen activator receptor (suPAR) (cynomolgus, UniProt Q9GK78 23-303, limits assumed); assay: BLI (Octet) off-rate screen of scFv clones
T1 construct: Target antigen of the scFv off-rate screen; also called cynomolgus suPAR; cynomolgus uPAR
T1 sequence (Q9GK78 23-303 limits assumed): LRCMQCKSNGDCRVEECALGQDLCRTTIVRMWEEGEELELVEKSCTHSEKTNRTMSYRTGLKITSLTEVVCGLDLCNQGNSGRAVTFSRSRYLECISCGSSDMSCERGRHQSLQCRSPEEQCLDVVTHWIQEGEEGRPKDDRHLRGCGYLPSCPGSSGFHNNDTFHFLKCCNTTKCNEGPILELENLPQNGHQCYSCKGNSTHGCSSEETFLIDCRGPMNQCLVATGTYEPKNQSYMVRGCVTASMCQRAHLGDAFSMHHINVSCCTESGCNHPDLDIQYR
property.label: koff (s⁻¹)
Give bare numbers, in s⁻¹.

(Q) Would you mind telling me what koff value was observed for suPAR_DB06_C11 (scFv, V domains shown) VH: QVQLVQSGAEVKKPGASVKVSCKASGYTFTNYYMHWVRQAPGQGLEWMGWIDHENGNTIYDQKFQGRVTMTRDTSTSTVYMELSSLRSEDTAVYYCARGYDVDWFVYWGQGTLVTVSS VL: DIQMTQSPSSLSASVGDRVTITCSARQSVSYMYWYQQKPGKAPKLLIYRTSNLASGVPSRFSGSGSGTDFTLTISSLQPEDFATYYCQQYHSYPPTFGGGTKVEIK ?
(A) 0.000631

In the following, a different binder is considered.
(Q) Record request: koff value, item suPAR_DB06_B11 (scFv, V domains shown) VH: QVQLVQSGAEVKKPGASVKVSCKASGYTFTSNYIHWVRQAPGQGLEWMGWIDHENGNTIYDQKFQGRVTMTRDTSTSTVYMELSSLRSEDTAVYYCAEGYDVDWFVYWGQGTLVTVSS VL: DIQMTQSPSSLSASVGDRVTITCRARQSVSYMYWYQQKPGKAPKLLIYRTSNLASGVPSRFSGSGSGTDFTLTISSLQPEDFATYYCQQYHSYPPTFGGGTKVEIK
(A) 0.000128
